Assayed System: T1, Anti-CD28 scFv (VH - linker 1 - VL) (biotinylated (site not stated))
T1 construct: Biotinylated scFv captured on neutravidin coated plates in the panning ELISA
T1 sequence (scFv, as listed by the source): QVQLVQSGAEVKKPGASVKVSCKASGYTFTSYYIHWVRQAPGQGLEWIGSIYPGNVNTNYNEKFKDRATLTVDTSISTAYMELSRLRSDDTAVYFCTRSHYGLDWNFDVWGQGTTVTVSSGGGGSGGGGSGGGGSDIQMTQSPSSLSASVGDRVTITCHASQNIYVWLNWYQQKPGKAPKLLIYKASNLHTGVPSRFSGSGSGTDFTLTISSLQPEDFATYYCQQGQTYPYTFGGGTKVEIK
Assay Procedure: phage ELISA; biotinylated anti-CD28 scFv on neutravidin plate, clonal phage supernatant, anti-M13-HRP;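 also: before the phage were added, wells were pre-incubated with soluble CD28 protein in blocking buffer, or with blocking buffer alone, and were not washed in between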
For each entry below, report its CD28 scFv signal value.

[Q] Assign CD28 scFv signal to the following record: MAWCPRILWHQCFN [Phage-381]
[A] 0.322

[Q] Assign CD28 scFv signal to the following record: MDWCPFDLWLECFN [Phage-377]
[A] 0.65

[Q] Assign CD28 scFv signal to the following record: MHWCPLHLWNECFA [Phage-378]
[A] 0.575

[Q] Assign CD28 scFv signal to the following record: MTWCPAYLWHECFN [Phage-370]
[A] 0.985

// data source = patent US20260242478A1
